Where do the numbers come from? From paper PMC9482650.

biological target: FRMPD4, Q14CM0; test: holdup assay; set-up: key: below the threshold = too weak to quantify, mostly under pKd 3.1 to 4; details: plain residues with an end cap or a label only (N-terminal biotin on a linker: ado-ado)
Sequence (Q14CM0 67-160): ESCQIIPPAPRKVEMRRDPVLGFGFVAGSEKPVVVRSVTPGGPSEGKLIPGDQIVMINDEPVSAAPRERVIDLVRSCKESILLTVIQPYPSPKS
Each entry below lists one item and its recorded pKd value.
attribute measured: pKd

[
  {
    "binder": "TKDKVQETQI [LRRC4, Q9HBW1]",
    "attribute measured": "pKd",
    "readout value": 3.57
  },
  {
    "binder": "DSEEELPTRL [GRK6, P43250]",
    "attribute measured": "pKd",
    "readout value": 4.39
  },
  {
    "binder": "TKEIPNCTSV [SORCS3, Q9UPU3]",
    "attribute measured": "pKd",
    "readout value": 3.65
  },
  {
    "binder": "KPDKQEEFYA [SDC3, O75056]",
    "attribute measured": "pKd",
    "readout value": 3.49
  },
  {
    "binder": "WAKEKQHTRL [SLC17A1, Q14916]",
    "attribute measured": "pKd",
    "readout value": 3.97
  },
  {
    "binder": "DLLGGGSDSI [TNRC6B, Q9UPQ9]",
    "attribute measured": "pKd",
    "readout value": 3.56
  },
  {
    "binder": "EAVTVESTSL [SLC22A11, Q9NSA0]",
    "attribute measured": "pKd",
    "readout value": 4.23
  },
  {
    "binder": "NKSEPFLTWL [WWTR1, Q9GZV5]",
    "attribute measured": "pKd",
    "readout value": 5.15
  }
]
